B1: Lysozyme C, P61626 (parent)
chain: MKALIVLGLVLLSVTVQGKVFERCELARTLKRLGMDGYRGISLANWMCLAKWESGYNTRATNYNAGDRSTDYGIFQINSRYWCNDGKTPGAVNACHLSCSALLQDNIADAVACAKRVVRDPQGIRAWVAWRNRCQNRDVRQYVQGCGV

variants of: B1; details: Homo sapiens; pH 3; 25 °C; GdnHCl; CD; glycine-HCl 40 mM; reversible: yes (100%); structure 1LZ1; whole UniProt chain shown
Listed here are variants together with their documented unfolding free energy.
value type: unfolding free energy (kcal/mol)

* MKALIVLGLVLLSVTVQGKVFERCELARTLKRLGMDGYRGISLANWMCLAKWESGYNTRATNYNAGDRSTDYGIFQINSRYWCNDGKTPGAVNACHLSCSALLQDNIADAVACAKRVVRDGQGIRAWVAWRNRCQNRDVRQYVQGCGV [P121G] | 9.7
* MKALIVLGLVLLSVTVQGKVFERCELARTLKRLGMDGYRGISLANWMCLAKWESGYNTRATNYNPGDRSTDYGIFQINSRYWCNDGKTPGAVNACHLSCSALLQDNIADAVACAKRVVRDPQGIRAWVAWRNRCQNRDVRQYVQGCGV [A65P] | 10.8
* MKALIVLGLVLLSVTVQGKVFERCELARTLKRLGMDGYRGISLANWMCLAKWESGYNTRATNYNAGDRSTDYGIFQINSRYWCNDGKTPGAVNACHLSCSALLQDNIADAVACAKRVVRDPQGIRAWPAWRNRCQNRDVRQYVQGCGV [V128P] | 12.1
* MKALIVLGLVLLSVTVQGKVFERCELARTLKRLGMDGYRGISLANWMCLAKWESGYNTRATNYNAGDRSTDYGIFQINSRYWCNDGKTGGAVNACHLSCSALLQDNIADAVACAKRVVRDGQGIRAWVAWRNRCQNRDVRQYVQGCGV [P89G P121G] | 8.6
* MKALIVLGLVLLSVTVQGKVFERCELARTLKRLGMDGYRGISLANWMCLAKWESGYNTRATNYNAGDRSTDYGIFQINSRYWCNDGKTGGAVNACHLSCSALLQDNIADAVACAKRVVRDPQGIRAWVAWRNRCQNRDVRQYVQGCGV [P89G] | 8.5
* MKALIVLGLVLLSVTVQGKVFERCELARTLKRLGMDGYRGISLANWMCLAKWESGYNTRATNYNAGDRSTDYGIFQINSRYWCNDGKTPGAVNACHLSCSALLQDNIAPAVACAKRVVRDPQGIRAWVAWRNRCQNRDVRQYVQGCGV [D109P] | 8.9
